- Tested on: Haemophilus parainfluenzae
- experiment.description: growth AUC normalised to DMSO control (fraction of control); higher = less growth inhibition, active = hit call of the paper
- details: 20 µM
Counter-ions that a name gives are not always drawn.
# growth AUC normalised to DMSO control annotations
Just the number, please.

Task: Value lookup for growth AUC normalised to DMSO control; key = COC(=O)C1=C(C)NC(C)=C(C(=O)OC(C)C)C1c1cccc2nonc12 (centres undefined)
Result: 1.02

Task: Bench note: what growth AUC normalised to DMSO control did Nc1nc2ccc(OC(F)(F)F)cc2s1 [Riluzole hydrochloride] show?
Result: 1.01

Task: Form field: reported growth AUC normalised to DMSO control of S=c1[nH]cnc2nc[nH]c12
Result: 0.997

Task: Query: growth AUC normalised to DMSO control; subject: COc1cc(C)nc(-n2nc(C)cc2OC)n1 [Epirizole]
Result: 0.999
